Tested on: HOP-92 NSCLC
test details: NCI-60 one-dose screen, 48 h
experimental parameters: 10 µM unless noted
Compounds without any hit were thinned out: in the full panel of roughly 83,000, 20% have a hit. Activity calls are given as the source filed them. Rule for the calls: active = growth percent below 10; inactive = the rest.
Outcomes: active, inactive

- compound: "O=c1ccn(C2CC=C(CO)O2)c(=O)[nH]1 (configuration not stated)"
  answer label: "inactive"
- compound: "COc1ccc(NC(=O)c2ccc(-c3ccccc3)cc2)c(C(N)=O)c1"
  answer label: "inactive"
- compound: "COc1cc(C(=O)/C=C/c2cccc(Nc3ccnc4cc(Cl)ccc34)c2)cc(OC)c1OC"
  answer label: "inactive"
- compound: "NC(=O)NC1(C(=O)O)CCCC1"
  answer label: "inactive"
- compound: "c1ccc(COc2ccc(Nc3ncnc4c3cnn4-c3ccccc3)cc2)cc1"
  answer label: "inactive"
- compound: "O=C1CNc2cc(Cl)ccc2N1"
  answer label: "inactive"
- compound: "CCN(CC)c1ccc(N=C2C=CC(=O)C=C2NC(C)=O)cc1"
  answer label: "inactive"
- compound: "CN1CCN(CCCCCN=c2cc3c(=O)n(CCCCCN4CCN(C)CC4)c(=O)c4c(NCCCCCN5CCN(C)CC5)cc5c(O)n(CCCCCN6CCN(C)CC6)c(=O)c2c5c4-3)CC1"
  answer label: "active"
- compound: "CCSc1nc(-c2cccs2)n2nc(-c3ccco3)cc2n1"
  answer label: "inactive"
- compound: "CCCCCc1c(C)[nH]c(/C=C2\\N=C(c3ccc[nH]3)C=C2Oc2ccc(Cl)cc2)c1C"
  answer label: "active"
- compound: "CC(=O)Nc1c(Cl)cc2c(c1Cl)Cc1cc([N+](=O)[O-])ccc1-2"
  answer label: "inactive"
- compound: "O=C(/C=C/c1c(-c2ccccc2)[nH]c2ccccc12)S(=O)(=O)c1ccccc1"
  answer label: "inactive"
- compound: "CCOC(=O)C(C(=O)OCC)C1CCCCC1"
  answer label: "inactive"
- compound: "O=C(CSc1nnc(-c2cc(-c3ccccc3)nc3ccccc23)o1)c1ccc(Br)cc1"
  answer label: "inactive"
- compound: "COc1ccc(OC)c2c1CCC1(C2)NC(=O)NC1=O (configuration not stated)"
  answer label: "inactive"
- compound: "NC(=NCCCCCCN=C(N)/N=C(\\N)Nc1ccc(Cl)cc1)/N=C(\\N)Nc1ccc(Cl)cc1"
  answer label: "active"
- compound: "CC1CN(C2CCCCC2)C(=O)NC1=O (configuration not stated)"
  answer label: "inactive"
- compound: "COc1cccc(N2CCN(CC(=O)N3CCN(c4nnc(-c5ccc(Cl)cc5)c(-c5ccc(Cl)cc5)n4)CC3)CC2)c1"
  answer label: "inactive"
- compound: "CC(C)CNc1nc(N=[N+]=[N-])nc(NCC(C)C)n1"
  answer label: "active"
- compound: "COc1cc(C2=NN(C=O)C(c3cccc(Nc4ccnc5cc(Cl)ccc45)c3)C2)cc(OC)c1OC (configuration not stated)"
  answer label: "inactive"
- compound: "O=C1NC(=S)S/C1=C\\c1cc(Br)ccc1O"
  answer label: "inactive"
- compound: "COc1ccc(C2=NN(C(N)=S)C(c3ccc4c(c3)OCO4)C2)cc1 (configuration not stated)"
  answer label: "inactive"
- compound: "CCCc1n(Cc2ccc3ccccc3c2)cc[n+]1Cc1ccc2ccccc2c1"
  answer label: "active"
- compound: "CC1(C)CC2(C)CC(=O)C1C(C(=O)O)C2C(=O)O (configuration not stated)"
  answer label: "inactive"
- compound: "O=Nc1c2cccnc2n2nnc3ccc(Cl)cc3c12"
  answer label: "active"
- compound: "CCOC(=O)c1sc(NC(=O)COc2cccc(/C=C3\\Cc4ccc(Cl)cc4C3=O)c2)nc1C"
  answer label: "inactive"
- compound: "O=C(CNC(=O)c1cccc2ccccc12)Nc1ccccc1Cc1ccccc1"
  answer label: "inactive"
- compound: "O=C(/C=C/c1ccc([N+](=O)[O-])cc1)c1ccc2c3c(cccc13)CC2"
  answer label: "inactive"
- compound: "CCOC1Oc2ccccc2C(=O)/C1=N/c1nccs1 (configuration not stated)"
  answer label: "active"
- compound: "Clc1ccc2[nH]cc(-c3cncn3CCc3ccccc3)c2c1"
  answer label: "inactive"
- compound: "CCOC(=O)/C(=C/CC/C(C)=C/CC/C(C)=C/CCc1ccoc1)CC(=O)N1CCCCC1"
  answer label: "active"
- compound: "c1ccc2nc(Cn3c[n+](Cc4ccc5ccccc5n4)c4ccccc43)ccc2c1"
  answer label: "active"
- compound: "NS(=O)(=O)c1ccc(-n2ncc3c(NC4CCCCC4)ncnc32)cc1"
  answer label: "inactive"
- compound: "NS(=O)(=O)c1ccc(-n2ncc3c(N/N=C/c4ccccc4)ncnc32)cc1"
  answer label: "inactive"
- compound: "Nc1nc(Nc2ccccc2SSc2ccccc2Nc2nc(N)nc(C(Cl)(Cl)Cl)n2)nc(C(Cl)(Cl)Cl)n1"
  answer label: "inactive"
- compound: "C/C(=C\\CCc1ccoc1)CC/C=C(\\C)CCCN1CCSCC1"
  answer label: "inactive"
- compound: "O=C(Oc1ccccc1)C(Br)C(Br)c1ccccc1 (configuration not stated)"
  answer label: "inactive"
- compound: "CCOc1cc(/C=C/C(=O)C(C(=O)/C=C/c2ccc(OC(=O)CNc3nc4ccccc4[nH]3)c(OCC)c2)C(=O)CNc2nc3ccccc3[nH]2)ccc1OC(=O)CNc1nc2ccccc2[nH]1"
  answer label: "active"
- compound: "Cc1nn(-c2nc3ccccc3s2)c(C)c1Oc1ccccc1O"
  answer label: "inactive"
- compound: "C[C@]12CC[C@H](O)CC1=CC[C@@H]1[C@@H]2CC[C@]2(C)C(c3cccnc3)=CC[C@@H]12"
  answer label: "inactive"
- compound: "O=C(c1ccc(Cl)cc1)c1ccc(Cl)cc1"
  answer label: "inactive"
- compound: "COc1ccc2c(c1)sc1nc(-c3ccc(N(C)C)cc3)cn12"
  answer label: "inactive"
